Below, each entry is listed with its recorded CT50 L929 cells.
tested on: L929 cells; experiment: Cytotoxicity CT50 in L929 cells; format: cell-based
measurement.name: CT50 L929 cells (mM)

molecule: CC1(CCl)CCC(=O)N1Cl (stereo not shown) [Compound 36-03]
measured.on: L929 cells
measurement.name: CT50 L929 cells
reported.result: 0.026
//
molecule: CC1(CC(F)(F)F)COC(=O)N1Cl (stereo not shown) [Compound 36-08]
measured.on: L929 cells
measurement.name: CT50 L929 cells
reported.result: 0.232
//
molecule: CC1(CCl)COC(=O)N1Cl (stereo not shown) [Compound 36-01]
measured.on: L929 cells
measurement.name: CT50 L929 cells
reported.result: 0.09
//
molecule: O=C1OCC(CCl)(CCl)N1Cl [Compound 36-06]
measured.on: L929 cells
measurement.name: CT50 L929 cells
reported.result: 0.4
//
molecule: CC1(CBr)COC(=O)N1Cl (stereo not shown) [Compound 36-05]
measured.on: L929 cells
measurement.name: CT50 L929 cells
reported.result: 0.1
//
molecule: CC1(CF)COC(=O)N1Cl (stereo not shown) [Compound 36-07]
measured.on: L929 cells
measurement.name: CT50 L929 cells
reported.result: 0.142
//
molecule: CN1CC(C)(CCl)N(Cl)C1=O (stereo not shown) [Compound 36-02]
measured.on: L929 cells
measurement.name: CT50 L929 cells
reported.result: 0.04

* * *

tested on: Candida albicans (ATCC 10231); assay: Antimicrobial activity (MFC), C. albicans; assay type: cell-based; details: saline pH 7, 1 h at room temperature, 1.0×10^5 to 1.0×10^6 CFU/mL
So basically, if MBC/MFC C. albicans comes in under 100 µg/mL it's Fulfilled, and if it's 100 µg/mL or more it's Not fulfilled.

molecule: CC1(CC(F)(F)F)COC(=O)N1Cl (stereo not shown)
label.class: Not fulfilled
//
molecule: CN1CC(C)(CCl)N(Cl)C1=O (stereo not shown)
label.class: Not fulfilled
//
molecule: CC1(CF)COC(=O)N1Cl (stereo not shown)
label.class: Not fulfilled
//
molecule: CC1(CCl)CCC(=O)N1Cl (stereo not shown)
label.class: Not fulfilled
//
molecule: O=C1OCC(CCl)(CCl)N1Cl
label.class: Fulfilled
//
molecule: CC1(CBr)COC(=O)N1Cl (stereo not shown)
label.class: Fulfilled
//
molecule: CC1(CCl)COC(=O)N1Cl (stereo not shown)
label.class: Not fulfilled
